target: aryl sulfatase A (ARSA) (Homo sapiens); construct: purchased R & D Systems; assay: ARSA inhibition assay with 4-MUS substrate; assay type: biochemical; details: 1 mM compound; 4-MUS substrate; means of two or more determinations; read-out: ARSA% inh @ 1 mM
Sequence (P15289 19-507, species assumed): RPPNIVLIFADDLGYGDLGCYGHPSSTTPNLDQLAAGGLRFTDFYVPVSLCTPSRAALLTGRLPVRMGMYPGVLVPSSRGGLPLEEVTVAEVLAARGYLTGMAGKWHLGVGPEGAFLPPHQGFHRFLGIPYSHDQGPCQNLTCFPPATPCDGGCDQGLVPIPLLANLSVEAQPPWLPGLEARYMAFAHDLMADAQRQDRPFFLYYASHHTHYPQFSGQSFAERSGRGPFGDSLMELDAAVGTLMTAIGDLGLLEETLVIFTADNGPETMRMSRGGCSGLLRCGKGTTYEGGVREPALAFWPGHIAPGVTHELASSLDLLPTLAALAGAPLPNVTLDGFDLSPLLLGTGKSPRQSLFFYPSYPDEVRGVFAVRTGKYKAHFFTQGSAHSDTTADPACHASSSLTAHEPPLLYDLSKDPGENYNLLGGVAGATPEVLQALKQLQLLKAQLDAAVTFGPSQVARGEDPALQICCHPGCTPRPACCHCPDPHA
Readings of inhibition at 1000 µM for the listed compounds
measured_endpoint: inhibition at 1000 µM (%)

smiles_code	number
O=S(=O)(Nc1ccccc1)OCC(Cl)(Cl)Cl	63
NS(=O)(=O)Oc1cccc(Oc2ccc(NS(=O)(=O)OCC(Cl)(Cl)Cl)cc2)c1	96
NS(=O)(=O)Oc1cccc(-c2ccc(NS(=O)(=O)O)cc2)c1	0
Nc1ccccc1Oc1cccc(OS(N)(=O)=O)c1	75
O=S(=O)(OCC(Cl)(Cl)Cl)Oc1cccc(-c2ccccc2)c1	70
NS(=O)(=O)Oc1cccc(Oc2ccccc2NS(=O)(=O)O)c1	54
NS(=O)(=O)Oc1cccc(Oc2cccc(NS(=O)(=O)O)c2)c1	95
NS(=O)(=O)Oc1cccc(Oc2cccc(C(=O)O)c2)c1	49
COC(=O)c1ccccc1-c1cccc(OS(N)(=O)=O)c1	86
